- Experimental System: MAO-B (Homo sapiens)
- Construct: purchased Sigma-Aldrich (St. Louis, MO, USA)
- Sequence (P27338 whole entry): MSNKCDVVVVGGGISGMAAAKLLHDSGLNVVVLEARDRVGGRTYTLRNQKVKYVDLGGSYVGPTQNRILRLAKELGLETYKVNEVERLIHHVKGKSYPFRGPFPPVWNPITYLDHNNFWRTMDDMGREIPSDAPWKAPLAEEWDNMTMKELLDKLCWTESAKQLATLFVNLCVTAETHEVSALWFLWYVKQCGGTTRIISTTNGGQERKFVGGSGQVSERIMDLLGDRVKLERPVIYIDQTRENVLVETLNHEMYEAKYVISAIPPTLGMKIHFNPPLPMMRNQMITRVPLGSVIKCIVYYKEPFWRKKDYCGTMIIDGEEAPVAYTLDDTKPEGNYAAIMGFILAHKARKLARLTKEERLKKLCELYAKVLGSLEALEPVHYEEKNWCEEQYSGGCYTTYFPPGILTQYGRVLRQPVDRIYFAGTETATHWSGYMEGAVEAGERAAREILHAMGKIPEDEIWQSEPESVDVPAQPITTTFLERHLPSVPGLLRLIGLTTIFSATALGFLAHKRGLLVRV
- Assay Protocol: biochemical
- Type: biochemical
- Method: The IC50 values were determined by measuring the residual activity at different concentrations of the compounds and by using GraphPad Prism software 5.0. […] BACE1 inhibitory activities were tested by the BACE1 activity detection kit. The assay method was described previously. Recombinant human MAO-A and MAO-B, AChE from Electrophorus electricus, BChE from equine serum, BACE1, and their substrates and reference inhibitors were purchased from Sigma-Aldrich (St. Louis, MO, USA). […]
Recorded measurements of IC50, one per entry

Compound: O=C(Cn1nc(N2CCOCC2)ccc1=O)NN=Cc1ccc(F)cc1 [TR15]
IC50: 0.43 µM

Compound: COc1cccc(N2CCN(c3ccc(=O)n(CC(=O)NN=Cc4ccc(Cl)cc4)n3)CC2)c1 [TR2]
IC50: 0.27 µM

Compound: O=C(Cn1nc(N2CCOCC2)ccc1=O)NN=Cc1ccc(Cl)cc1 [TR16]
IC50: 0.17 µM
